- assay.explanation: nuclear p53 accumulation, HPV+ cells – imaging, p53-positive nuclei imaging, 24 h, 48 h (AID 1508601)
- protocol.conditions: 24/48 h, measured here: cell number at 48 h, Library stock concentration: 46 uM
In all, about 5,700 compounds went through this assay and about 85 (1%) were called active. The sample holds actives, similar compounds and a random draw of the others, so the mix is not that of the screen.
Catalogue of molecules with associated nuclei count, normalised
observation.type: nuclei count, normalised (%)

CC(C)(C)Nc1nc2cc(Cl)c(Cl)cc2nc1S(C)(=O)=O: 118
CS(=O)(=O)N1CCN(Cc2cc3nc(-c4cccc5[nH]ncc45)nc(N4CCOCC4)c3s2)CC1: 97
CN1CCN(c2ccc(Nc3c4ccccc4nc4ccccc34)cc2)CC1: 96.2
COc1cc(OC)c2c(=O)[nH]c(-c3cc(C)c(OCCO)c(C)c3)nc2c1: 111
O=C1CN2Cc3c(ccc(Cl)c3Cl)N=C2N1: 45.1
CN1CCc2c(c3ccccc3n2Cc2ccc(C(=O)NO)cc2)C1: 119
O=C(O)CCCCCCCCCCCNC(=O)NC12CC3CC(CC(C3)C1)C2: 111
O=C1CC(c2ccc([N+](=O)[O-])cc2)=NN1c1ccccc1: 107
